B1: PTPRD (parent)
chain: ELDELLKEISRKRRSIRYGREVEL

variants of: B1; assay: protein stability index of a GFP-peptide fusion (GPS, HEK-293T) (PSI 1-6); higher = more stable; conditions: c terminus: a fixed tail appended;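 further: lentivirally expressed fusions sorted by FACS into six bins by GFP to DsRed ratio, PSI derived from sequencing read proportions per bin multiplied by bin number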
READOUT_LABEL: protein stability index
Give the value as a plain number.

Below: 5 variants and their reported protein stability index.
>>> df
   mutations  result
0       R11K    1.84
1        L5T    3.58
2        K7H     2.4
3       L24R    3.13
4        E8I    2.83

Ask | Output measured protein stability index for this item: `I16A`
Reply | 1.9

Ask | Note down protein stability index recorded for `E8F`
Reply | 2

The values you see were collected from the supplement of paper PMC10567573.
